# Test system: Plasmodium falciparum
# assayOverview: GSK_TCMDC: Inhibition of Plasmodium falciparum 3D7 in whole erythrocytes, using parasite LDH activity as an index of growth.
# Type: functional, organism-based
# measurementParameters: Plasmodium falciparum, 3D7
Note to self: use t only for XC50 readings below 0.9 µM; a reading exactly at 0.9 µM still gets f.

{"columns": ["compound", "classification"],
 "data": [
  ["CCN(CC)CCNc1ccc(Nc2ccnc3cc4ccccc4cc23)cc1", "t"],
  ["Cc1ccc2nc(-c3ccc(C(=O)NCc4ccc(Cl)c(Cl)c4)cc3)[nH]c2c1C", "t"],
  ["COc1ccc2nccc([C@@H](O)CN3CCC(NC(=O)c4ccc(C5(C(F)(F)F)N=N5)cc4)CC3)c2c1", "f"],
  ["COc1ccc(NC(=O)Nc2ccc(-c3ccc(-c4nc5ccccc5[nH]4)cc3)cc2)cc1", "t"]
]}

# evaluate next
Criterion: XC50 strictly below 0.9 µM. Is it met by COc1ccccc1CC1CCCN(C2CCC(NC(=O)c3cc4ccccc4[nH]3)CC2)C1 (configuration not stated) ?
t

====

# Test system: Plasmodium falciparum
# assayOverview: GSK_TCMDC: Inhibition of Plasmodium falciparum 3D7 in whole erythrocytes, using parasite LDH activity as an index of growth.
# Type: functional, organism-based
# measurementParameters: Plasmodium falciparum, 3D7
quantityName: XC50 (nM)
Supply the numeric figure in nM, leaving out any unit text.

Consider the reported XC50 for these compounds:
{"columns": ["compound", "targetSystem", "XC50 / nM"],
 "data": [
  ["CC(C)(C)N1CCC(N(Cc2ccc(-c3ccc(C(F)(F)F)cc3)cc2)C(=O)Cn2c(CCc3cccc(F)c3F)cc(=O)c3cccnc32)CC1", "Plasmodium falciparum", 705],
  ["CN1CCC(C(=O)Nc2cccc(-c3ccc(-c4nc5cc(C(F)(F)F)ccc5[nH]4)s3)c2)CC1", "Plasmodium falciparum", 724],
  ["COc1ccc(N2CCN(CCCCNC(=O)c3ccc(NC(=O)c4ccc(Cl)c(Cl)c4)cc3)CC2)c(OC)c1", "Plasmodium falciparum", 212],
  ["COc1ccc(NC(=O)[C@H](Cc2ccccc2)Nc2cc(C)nc(NCCc3ccc(F)cc3)n2)cc1", "Plasmodium falciparum", 1120],
  ["CC[C@H]1CN2CC[C@H]1C[C@H]2[C@H](O)c1cc(-c2ccc3ccccc3c2)nc2ccc(OC)cc12", "Plasmodium falciparum", 104],
  ["CCc1cn2c3c(cc(C(=O)N[C@@H](Cc4ccccc4)[C@H](O)CNC4CCOCC4)cc13)N(C(C)C)S(=O)(=O)CC2", "Plasmodium falciparum", 83.6]
]}

Please give the measured XC50 for this compound: O=C(Nc1ccc(F)c(C(F)(F)F)c1)NC1CCN(CCCCCNC(=O)C2CC2c2ccc(Cl)c(Cl)c2)CC1 (stereo not drawn)
663

What do you have for O=C(C=Cc1ccc(C(=O)Nc2ccc(C3=NCCN3)cc2)cc1)Nc1ccc(C2=NCCN2)cc1 ?
34.7

====

# Test system: Plasmodium falciparum
# assayOverview: GSK_TCMDC: Inhibition of Plasmodium falciparum 3D7 in whole erythrocytes, using parasite LDH activity as an index of growth.
# Format: functional, organism-based
# measurementParameters: Plasmodium falciparum, 3D7
Note to self: use condition met only for XC50 readings below 900 nM; a reading exactly at 900 nM still gets condition not met.

{"columns": ["smilesText", "targetSystem", "classification"],
 "data": [
  ["Nc1cnc(C#Cc2cc3ncnc(N(CCN4CCOCC4)c4ccc(OCc5cccc(F)c5)c(Cl)c4)c3s2)cn1", "Plasmodium falciparum", "condition not met"]
]}

Criterion: XC50 strictly below 900 nM. Is it met by CN(C)c1ccc(-c2nnc(Sc3ccc(C#N)c([N+](=O)[O-])c3)n2Cc2ccco2)cc1 ?
condition met

What do you have for CC1(C)N=C(N)N=C(NOCc2ccc(Cl)c(Cl)c2)N1 ?
condition met

What do you have for Cc1c(-c2cccc(C(C)(C)NCCCN3CCCCC3)c2)cnc(N)c1C ?
condition not met

What do you have for c1ccc(COc2ccc(C3CCCCC3)cc2)nc1 ?
condition met
